Exercise: for every item that follows, state its recorded herbicidal effect rating, SAGPY.
- Tested on: Sagittaria pygmaea, L.
- run-description: Postemergence weed control under flooded paddy conditions, SAGPY (Arrowhead (Pygmaea))
- Format: in vivo
- cond: Rate 0.1250 kg/ha, rated three to four weeks after treatment

[[record]]
compound = "COC(=O)C(C)Oc1cc(C)c(C)cc1-c1nsc2ccc(-n3c(=O)cc(C(F)(F)F)n(C)c3=O)cc12 (stereo not drawn) [Example 13]"
reported = 2.0

[[record]]
compound = "COC(=O)COc1ccc(C)cc1-c1noc2ccc(-n3c(=O)cc(C(F)(F)F)n(C)c3=O)c(Cl)c12 [Example 261]"
reported = 0.0


Which herbicidal effect rating, SAGPY value belongs to CCC(C#N)(CC)c1nsc2ccc(-n3c(=O)cc(C(F)(F)F)n(C)c3=O)cc12 [Example 445] ?
4.0

###

Exercise: for every item that follows, state its recorded SAGPY herbicidal effect rating.
- System: Sagittaria pygmaea, L.
- run-description: Preemergence weed control under flooded paddy conditions, SAGPY (Arrowhead (Pygmaea))
- Assay type: in vivo
- cond: Rate 0.2500 kg/ha; preemergence, flooded paddy; rated three to four weeks after treatment
Numbers only.

[[record]]
molecule = "Cc1ccc(OCC(=O)OC(C)(C)C)c(-c2noc3ccc(-n4c(=O)cc(C(F)(F)F)n(C)c4=O)c(Cl)c23)c1 [Example 265]"
assayed_target = "Sagittaria pygmaea, L."
readout_name = "SAGPY herbicidal effect rating"
reported = 0.0

[[record]]
molecule = "C=C(C)C1CC=C(COCc2nsc3ccc(-n4c(=O)ccn(C)c4=O)cc23)CC1 (centres unmarked) [Example 211]"
assayed_target = "Sagittaria pygmaea, L."
readout_name = "SAGPY herbicidal effect rating"
reported = 0.0

[[record]]
molecule = "COC(=O)C(C)Oc1ccc(-c2nsc3ccc(-n4c(=O)cc(C(F)(F)F)n(C)c4=O)cc23)cc1 (centres unmarked) [Example 258]"
assayed_target = "Sagittaria pygmaea, L."
readout_name = "SAGPY herbicidal effect rating"
reported = 0.0


Each of the following entries comes with a recorded value; kindly state SAGPY herbicidal effect rating for each.
1. COC(=O)COc1ccc(C)cc1-c1noc2ccc(-n3c(=O)cc(C(F)(F)F)n(C)c3=O)c(Cl)c12 [Example 261]
2. Cn1c(C(F)(F)F)cc(=O)n(-c2ccc3snc(COCC(=O)O)c3c2)c1=O [Example 293]

0.0
6.0

###

- Test system: Oryza sativa, (L.) Tebonnet
- run-description: Rice tolerance to post-transplant applications under flooded paddy conditions (Example 187), ORYSAT (Rice, Tebonnet)
- cond: 0.0625 kg/ha, rated three to four weeks after treatment
readout-name: herbicidal effect rating, ORYSAT (rice tolerance)
Numbers only.

Consider the following illustrative entries.
[[record]]
compound = "CC(C)SCc1nsc2ccc(-n3c(=O)cc(C(F)(F)F)n(C)c3=O)cc12 [Example 202]"
reported = 4.0

[[record]]
compound = "CCCCOCc1nsc2ccc(-n3c(=O)cc(C(F)(F)F)n(C)c3=O)cc12 [Example 204]"
reported = 4.0


Query herbicidal effect rating, ORYSAT (rice tolerance) on Oryza sativa, (L.) Tebonnet for Cn1c(C(F)(F)F)cc(=O)n(-c2ccc3snc(C(CCl)CCl)c3c2)c1=O [Example 199]
4.0

###

- Test system: Sagittaria pygmaea, L.
- run-description: Preemergence weed control under flooded paddy conditions, SAGPY (Arrowhead (Pygmaea)); for herbicidal effect rating, SAGPY: meaning of each grade not given here
- Assay type: in vivo
- cond: Rate 0.0620 kg/ha; preemergence weeds, flooded paddy; rated three to four weeks after treatment
Exercise: for every item that follows, state its recorded herbicidal effect rating, SAGPY.
Numbers only.

Each of the following entries comes with a recorded value; kindly state herbicidal effect rating, SAGPY for each.
1. CN(C)C(=O)c1nsc2ccc(-n3c(=O)cc(C(F)(F)F)n(C)c3=O)cc12
2. CN(O)C(=O)COc1ccccc1-c1nsc2ccc(-n3c(=O)cc(C(F)(F)F)n(C)c3=O)cc12

[4.0, 0.0]

Each of the following entries comes with a recorded value; kindly state herbicidal effect rating, SAGPY for each.
1. CSc1ccc(C)cc1-c1nsc2ccc(-n3c(=O)cc(C(F)(F)F)n(C)c3=O)cc12
2. Cn1c(C(F)(F)F)cc(=O)n(-c2ccc3snc(C(N)=O)c3c2)c1=O
3. CNC.Cn1c(C(F)(F)F)cc(=O)n(-c2ccc3snc(CSCC(=O)NS(C)(=O)=O)c3c2)c1=O
4. C[C@@H](Br)[C@H](Br)c1nsc2ccc(-n3c(=O)cc(C(F)(F)F)n(C)c3=O)cc12

[0.0, 3.0, 0.0, 2.0]

Each of the following entries comes with a recorded value; kindly state herbicidal effect rating, SAGPY for each.
1. Cn1c(C(F)(F)F)cc(=O)n(-c2ccc3snc(C(=O)O)c3c2)c1=O
2. CCOc1cccc(-c2nsc3ccc(-n4c(=O)cc(C(F)(F)F)n(C)c4=O)cc23)c1
3. CONC(=O)COc1ccc(C)cc1-c1nsc2ccc(-n3c(=O)cc(C(F)(F)F)n(C)c3=O)cc12

1. 0.0
2. 5.5
3. 3.0
